- measurementTarget: T1, human CD19 (human, UniProt P15391 20-556)
- T1 construct: also called B-cell surface antigen B4; B-cell antigen CD19
- T1 sequence: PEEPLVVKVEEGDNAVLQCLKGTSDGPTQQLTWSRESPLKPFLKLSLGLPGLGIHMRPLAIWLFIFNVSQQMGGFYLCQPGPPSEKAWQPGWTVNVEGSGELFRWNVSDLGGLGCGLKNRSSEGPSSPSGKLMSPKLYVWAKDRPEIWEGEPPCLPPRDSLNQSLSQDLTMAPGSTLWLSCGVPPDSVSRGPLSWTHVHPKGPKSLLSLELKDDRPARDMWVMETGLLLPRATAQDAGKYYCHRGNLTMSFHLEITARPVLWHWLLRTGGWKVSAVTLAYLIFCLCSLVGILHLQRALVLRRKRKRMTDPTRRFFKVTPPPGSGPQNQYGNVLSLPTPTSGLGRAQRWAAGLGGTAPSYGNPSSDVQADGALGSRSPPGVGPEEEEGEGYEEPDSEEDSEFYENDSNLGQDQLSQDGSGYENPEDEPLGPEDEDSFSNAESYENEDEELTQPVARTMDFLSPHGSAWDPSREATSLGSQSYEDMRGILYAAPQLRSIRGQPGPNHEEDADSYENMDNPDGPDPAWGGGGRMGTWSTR
- testMethodNotes: binding affinity relative to the parent H1L1 mAb (Example 5); assay and format not named on the sheet
endpoint: Fold change binding (fold)
Reply numerically in fold, unit not repeated.

Some entries whose results are on file:
[[record]]
binder = "H1.52 / L1.161 (antibody, V domains shown, vs H1L1 (Kabat): VH S100cT; VL L27cQ/S27eV/G29S/A55N/F96I; also called 4G7 H1.52_L1.161) VH: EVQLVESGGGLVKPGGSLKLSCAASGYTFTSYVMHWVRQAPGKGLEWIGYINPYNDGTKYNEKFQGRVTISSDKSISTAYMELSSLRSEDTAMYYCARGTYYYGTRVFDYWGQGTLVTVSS VL: DIVMTQSPATLSLSPGERATLSCRSSKSLQNVNSNTYLYWFQQKPGQSPQLLIYRMSNLNSGVPDRFSGSGSGTEFTLTISSLEPEDFAVYYCMQHLEYPITFGAGTKLEIK"
testresult = 3.18

[[record]]
binder = "H1 / L1.67 (antibody, V domains shown, vs H1L1 (Kabat): VL F96V; also called 4G7 H1_L1.67) VH: EVQLVESGGGLVKPGGSLKLSCAASGYTFTSYVMHWVRQAPGKGLEWIGYINPYNDGTKYNEKFQGRVTISSDKSISTAYMELSSLRSEDTAMYYCARGTYYYGSRVFDYWGQGTLVTVSS VL: DIVMTQSPATLSLSPGERATLSCRSSKSLLNSNGNTYLYWFQQKPGQSPQLLIYRMSNLASGVPDRFSGSGSGTEFTLTISSLEPEDFAVYYCMQHLEYPVTFGAGTKLEIK"
testresult = 1.73


Enquiry: Please indicate Fold change binding recorded for H1.201 / L1.163 (antibody, V domains shown, vs H1L1 (Kabat): VH D55S/S100cT; VL L27cQ/S27eA/G29S/A55N/F96I; also called 4G7 H1.201_L1.163) VH: EVQLVESGGGLVKPGGSLKLSCAASGYTFTSYVMHWVRQAPGKGLEWIGYINPYNSGTKYNEKFQGRVTISSDKSISTAYMELSSLRSEDTAMYYCARGTYYYGTRVFDYWGQGTLVTVSS VL: DIVMTQSPATLSLSPGERATLSCRSSKSLQNANSNTYLYWFQQKPGQSPQLLIYRMSNLNSGVPDRFSGSGSGTEFTLTISSLEPEDFAVYYCMQHLEYPITFGAGTKLEIK
Return: 3.87

Enquiry: Please indicate Fold change binding recorded for H1.201 / L1.164 (antibody, V domains shown, vs H1L1 (Kabat): VH D55S/S100cT; VL L27cQ/S27eA/A55N/F96I; also called 4G7 H1.201_L1.164) VH: EVQLVESGGGLVKPGGSLKLSCAASGYTFTSYVMHWVRQAPGKGLEWIGYINPYNSGTKYNEKFQGRVTISSDKSISTAYMELSSLRSEDTAMYYCARGTYYYGTRVFDYWGQGTLVTVSS VL: DIVMTQSPATLSLSPGERATLSCRSSKSLQNANGNTYLYWFQQKPGQSPQLLIYRMSNLNSGVPDRFSGSGSGTEFTLTISSLEPEDFAVYYCMQHLEYPITFGAGTKLEIK
Return: 4.41

Enquiry: Please indicate Fold change binding recorded for H1.204 / L1.161 (antibody, V domains shown, vs H1L1 (Kabat): VH D55E/K58E/S100cT; VL L27cQ/S27eV/G29S/A55N/F96I; also called 4G7 H1.204_L1.161) VH: EVQLVESGGGLVKPGGSLKLSCAASGYTFTSYVMHWVRQAPGKGLEWIGYINPYNEGTEYNEKFQGRVTISSDKSISTAYMELSSLRSEDTAMYYCARGTYYYGTRVFDYWGQGTLVTVSS VL: DIVMTQSPATLSLSPGERATLSCRSSKSLQNVNSNTYLYWFQQKPGQSPQLLIYRMSNLNSGVPDRFSGSGSGTEFTLTISSLEPEDFAVYYCMQHLEYPITFGAGTKLEIK
Return: 3.27

Enquiry: Please indicate Fold change binding recorded for H1 / L1.8 (antibody, V domains shown, vs H1L1 (Kabat): VL S52K; also called 4G7 H1_L1.8) VH: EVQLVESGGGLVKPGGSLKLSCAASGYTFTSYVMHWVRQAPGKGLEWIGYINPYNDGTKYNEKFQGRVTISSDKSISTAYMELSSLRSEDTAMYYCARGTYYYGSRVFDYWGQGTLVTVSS VL: DIVMTQSPATLSLSPGERATLSCRSSKSLLNSNGNTYLYWFQQKPGQSPQLLIYRMKNLASGVPDRFSGSGSGTEFTLTISSLEPEDFAVYYCMQHLEYPFTFGAGTKLEIK
Return: 2.18

Enquiry: Please indicate Fold change binding recorded for H1.203 / L1.162 (antibody, V domains shown, vs H1L1 (Kabat): VH D55S/K58E/S100cT; VL L27cQ/S27eA/G29A/A55N/F96I; also called 4G7 H1.203_L1.162) VH: EVQLVESGGGLVKPGGSLKLSCAASGYTFTSYVMHWVRQAPGKGLEWIGYINPYNSGTEYNEKFQGRVTISSDKSISTAYMELSSLRSEDTAMYYCARGTYYYGTRVFDYWGQGTLVTVSS VL: DIVMTQSPATLSLSPGERATLSCRSSKSLQNANANTYLYWFQQKPGQSPQLLIYRMSNLNSGVPDRFSGSGSGTEFTLTISSLEPEDFAVYYCMQHLEYPITFGAGTKLEIK
Return: 3.25
